Please go through the items and note down their Area of leaf.
test system: rice; assay: Low temperature assay on rice seedlings; assay type: in vivo; conditions: 0.0001 mg/l, 4 °C, 9 days
Quick reminder: number only, in cm^2, skip the unit.

Looking up `CC(C)(O)CC[C@@H](O)[C@](C)(O)[C@H]1CC[C@@]2(O)[C@@H]3CC(=O)[C@@H]4C[C@@H](O)[C@@H](O)C[C@]4(C)[C@H]3CC[C@]12C` , I found its Area of leaf recorded as 13

Looking up CC(C)C[C@@H](O)[C@H](O)[C@@H](C)[C@H]1CCC2C3CC(=O)C4C[C@H](O)[C@H](O)C[C@]4(C)C3CC[C@@]21C (stereo partly drawn) , I found its Area of leaf recorded as 13

Looking up CC(C)[C@H](C)[C@@H](O)[C@H](O)[C@@H](C)[C@H]1CCC2C3CC(=O)C4C[C@H](O)CC[C@]4(C)C3CC[C@@]21C (stereo partly drawn) , I found its Area of leaf recorded as 13

Data provenance is patent US9326506B2.
